procedure.summary: Analytical size exclusion chromatography (percent monomer)
Assay type: physicochemical
reported.conditions: NEM-conjugated cysteine variants; SEC, Abs280 monomer region 5.5-6 minutes vs oligomer region 4-5.3 minutes
Please go through the items and note down their Percent monomer.
A bare number is not enough; add the unit after it.

In one line, give reported Percent monomer of the entry K79C (conjugate, left off: small tags and cut ends) LPAPKNLVVSEVTEDSARLSWDDPWAFYESFLIQYQESEKVGEAIVLTVPGSERSYDLTGLKPGTEYTVSIYGVHNVYCDTNMRGLPLSAIFTT . 100%

In one line, give reported Percent monomer of the entry S38C: cysteine variant of P54AR4-83v2 (SEQ ID NOS: 198 and 236); NEM and VC-MMAF conjugates (conjugate, NEM or vcMMAF conjugate; EGFR binding FN3 domain, NEM and VC-MMAF conjugates) MLPAPKNLVVSEVTEDSARLSWDDPWAFYESFLIQYQECEKVGEAIVLTVPGSERSYDLTGLKPGTEYTVSIYGVHNVYKDTNMRGLPLSAIFTT . 93%

In one line, give reported Percent monomer of the entry S10C: cysteine variant of P54AR4-83v2 (SEQ ID NOS: 190 and 228); NEM and VC-MMAF conjugates (conjugate, NEM or vcMMAF conjugate; EGFR binding FN3 domain, NEM and VC-MMAF conjugates) MLPAPKNLVVCEVTEDSARLSWDDPWAFYESFLIQYQESEKVGEAIVLTVPGSERSYDLTGLKPGTEYTVSIYGVHNVYKDTNMRGLPLSAIFTT . 80%

In one line, give reported Percent monomer of the entry T59C: cysteine variant of P54AR4-83v2 (SEQ ID NOS: 206 and 244); NEM and VC-MMAF conjugates (conjugate, NEM or vcMMAF conjugate; EGFR binding FN3 domain, NEM and VC-MMAF conjugates) MLPAPKNLVVSEVTEDSARLSWDDPWAFYESFLIQYQESEKVGEAIVLTVPGSERSYDLCGLKPGTEYTVSIYGVHNVYKDTNMRGLPLSAIFTT . 100%

In one line, give reported Percent monomer of the entry L7C (conjugate, left off: small tags and cut ends) LPAPKNCVVSEVTEDSARLSWDDPWAFYESFLIQYQESEKVGEAIVLTVPGSERSYDLTGLKPGTEYTVSIYGVHNVYKDTNMRGLPLSAIFTT . 93%

In one line, give reported Percent monomer of the entry N82C (conjugate, left off: small tags and cut ends) LPAPKNLVVSEVTEDSARLSWDDPWAFYESFLIQYQESEKVGEAIVLTVPGSERSYDLTGLKPGTEYTVSIYGVHNVYKDTCMRGLPLSAIFTT . 100%
